Values from ChEMBL document CHEMBL1134124

target: Endothelin-1 receptor (Homo sapiens); assay: In vitro inhibition of [125I]ET1 binding to CHO cells expressing recombinant human Endothelin A receptor
Sequence (P25101 whole entry): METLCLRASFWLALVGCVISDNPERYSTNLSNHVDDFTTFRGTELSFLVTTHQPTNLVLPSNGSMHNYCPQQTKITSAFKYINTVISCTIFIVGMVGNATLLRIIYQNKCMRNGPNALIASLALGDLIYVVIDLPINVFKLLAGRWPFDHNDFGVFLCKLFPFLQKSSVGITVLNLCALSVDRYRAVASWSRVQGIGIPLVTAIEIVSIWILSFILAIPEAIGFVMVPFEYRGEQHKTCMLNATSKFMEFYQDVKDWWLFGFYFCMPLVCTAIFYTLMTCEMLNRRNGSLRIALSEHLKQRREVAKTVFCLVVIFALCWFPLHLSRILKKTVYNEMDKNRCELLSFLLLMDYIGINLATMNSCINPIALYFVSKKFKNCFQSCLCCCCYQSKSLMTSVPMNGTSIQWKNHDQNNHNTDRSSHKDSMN
I'd be grateful if you could share measured IC50 for these entries.

Input line: Using known records, supply IC50 for "CCCOc1ccc2c(c1)[C@H](c1ccc(OC)cc1)N(CC(=O)O)[C@@H]2c1ccc(OC)cc1OCC(=O)O"
Output line: > 10 µM

Input line: Using known records, supply IC50 for "CCCOc1ccc2c(c1)[C@@H](c1ccc(OC)cc1)N(CC(=O)O)[C@@H]2c1ccc(OC)cc1OCC(=O)O"
Output line: > 10 µM

Input line: Using known records, supply IC50 for "CCOc1ccc2c(c1)[C@@H](c1ccc(OC)cc1OCCO)N(CC(=O)O)[C@@H]2c1ccc2c(c1)OCO2"
Output line: > 10 µM
